src = PubChem BioAssay AID1745844

System: rodent lifetime carcinogenesis bioassay, tumor incidence TD50
Assay: carcinogenic potency in animals, long-term in vivo studies, CPDB compilation (AID 1745844)
Details: mouse; strain Ha/ICR; males; by gavage; site: forestomach; lesion: one or several types; types not named; dosed 88 weeks; study length 88 weeks
The source made the active and inactive calls. No rule for the calls is given here.
QUANTITY: TD50

Could you share what TD50 was measured for "ClC=C(Cl)Cl" , tested on rodent lifetime carcinogenesis bioassay, tumor incidence TD50?
16.9 mg/kg/day (inactive)

----------
Test system: rodent lifetime carcinogenesis bioassay, tumor incidence TD50
Assay: carcinogenic potency in animals, long-term in vivo studies, CPDB compilation (AID 1745844)
Settings: rat; strain Sprague-Dawley; both sexes; in feed; site: urinary bladder; lesion: several types; types named in the paper; dosed 133 weeks; study length 142 weeks
QUANTITY: TD50

What value of measured TD50 is listed for "Cc1ccccc1S(N)(=O)=O" ?
3960 mg/kg/day
